Every entry's value here was drawn from patent US20230174641A1.

molecular target: T1, human ACTH 1-13 (human, ends and bridges not checked); assay: SPR ProteOn, antibody immobilised
T1 construct: also called human alpha-MSH (ACTH 1-13); alpha-MSH
T1 peptide: SYSMEHFRWGKPV
Ends that are not written are not given here.
Each entry below carries its reported koff.

binder	koff
Ab10 (antibody, human IgG1, kappa, N297A, V domains shown, rabbit/human chimeric antibody, made in HEK-293) VH: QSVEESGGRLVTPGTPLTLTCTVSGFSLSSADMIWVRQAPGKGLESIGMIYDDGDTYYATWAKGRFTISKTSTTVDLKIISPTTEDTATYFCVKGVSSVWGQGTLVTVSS VL: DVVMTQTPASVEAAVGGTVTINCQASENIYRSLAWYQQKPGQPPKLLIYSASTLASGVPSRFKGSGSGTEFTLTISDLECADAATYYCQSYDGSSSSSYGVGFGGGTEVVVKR	> 0.1 s⁻¹
Ab12 (antibody, human IgG1, kappa, N297A, V domains shown, rabbit/human chimeric antibody, made in HEK-293) VH: QSVEESGGRLVTPGTPLTLTCTVSGSSLSDYDMIWVRQAPGKGLESIGIIYDDGDTYYATWAKGRFTISKTSTTVDLRIISPTTEDTATYFCVKGVSNMWGPGTLVTVSS VL: DVVMTQTPSSVSAAVGGTVTIKCQASQSIGSSLAWYQQKPGQRPKLLIYAASTLASGVPSRFKGSGSGTEFTLTISDLECADAATYYCQSYDGSSSSSYGVGFGGGTEVVVKR	> 0.1 s⁻¹
Ab11 (antibody, human IgG1, kappa, N297A, V domains shown, rabbit/human chimeric antibody, made in HEK-293) VH: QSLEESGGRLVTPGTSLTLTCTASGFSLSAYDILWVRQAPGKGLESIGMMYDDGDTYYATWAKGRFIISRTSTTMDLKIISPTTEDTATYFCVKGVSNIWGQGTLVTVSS VL: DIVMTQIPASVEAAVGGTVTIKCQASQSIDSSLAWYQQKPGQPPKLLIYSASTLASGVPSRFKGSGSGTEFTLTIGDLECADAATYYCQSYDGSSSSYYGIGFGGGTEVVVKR	> 0.1 s⁻¹
